# study_target: Interleukin-1 receptor-associated kinase 4 (Homo sapiens, UniProt Q9NWZ3)
# Sequence (Q9NWZ3 whole entry): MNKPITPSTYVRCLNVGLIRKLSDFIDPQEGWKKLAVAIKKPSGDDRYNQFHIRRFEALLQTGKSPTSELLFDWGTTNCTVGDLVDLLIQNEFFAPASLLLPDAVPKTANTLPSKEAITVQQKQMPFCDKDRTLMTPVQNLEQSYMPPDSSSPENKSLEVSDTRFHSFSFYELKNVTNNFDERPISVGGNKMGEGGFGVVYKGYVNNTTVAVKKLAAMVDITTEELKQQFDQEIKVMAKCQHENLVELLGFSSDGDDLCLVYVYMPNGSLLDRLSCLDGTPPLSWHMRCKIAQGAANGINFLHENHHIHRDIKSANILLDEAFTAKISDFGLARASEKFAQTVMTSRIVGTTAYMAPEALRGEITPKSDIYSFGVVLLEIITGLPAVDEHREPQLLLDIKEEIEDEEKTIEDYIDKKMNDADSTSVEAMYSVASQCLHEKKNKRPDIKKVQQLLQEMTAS
pIC50: −log10 of the molar value.
measured_property: pIC50

[[record]]
entry_smiles = "COc1cc2c(OC[C@@H]3CCC(=O)N3)ncc(C#CCOCCOCCOCCC(=O)N[C@H](C(=O)N3C[C@H](O)C[C@H]3C(=O)NCc3ccc(-c4scnc4C)cc3)C(C)(C)C)c2cc1C(N)=O"
value_measured = 9.54


---

# protocol_text: Chromatographic hydrophobicity index, log D of compound at pH 7.4
# Format: physicochemical
# condition_summary: buffer
measured_property: Chromatographic log D at pH 7.4 (ChromLogD)

[[record]]
molecule = "CC[C@@H]1[C@H](F)C(=O)N[C@@H]1COc1ncc(C#CCCCCCCCCCCC(=O)N[C@H](C(=O)N2CC(O)CC2C(=O)NCc2ccc(-c3scnc3C)cc2)C(C)(C)C)c2cc(C(N)=O)c(OC)cc12 (single isomer, unassigned)"
value_measured = 6.44

[[record]]
molecule = "COc1cc2c(OC[C@@H]3CCC(=O)N3)ncc(Br)c2cc1C(N)=O"
value_measured = 2.1

[[record]]
molecule = "COc1cc2c(OC[C@@H]3CCC(=O)N3)ncc(C#CCCCCCCCCCCOc3cccc4c3C(=O)N(C3CCC(=O)NC3=O)C4=O)c2cc1C(N)=O (stereo partly drawn)"
value_measured = 6.01

[[record]]
molecule = "COc1cc2c(OC[C@@H]3CCC(=O)N3)ncc(C#CCCCCCCCCCCC(=O)N[C@H](C(=O)N3C[C@H](O)C[C@H]3C(=O)NCc3ccc(-c4scnc4C)cc3)C(C)(C)C)c2cc1C(N)=O"
value_measured = 5.82

[[record]]
molecule = "CN[C@@H](C)C(=O)N[C@H](C(=O)N1C[C@@H](NC(=O)CCOCCOCCOCC#Cc2cnc(OC[C@@H]3CCC(=O)N3)c3cc(OC)c(C(N)=O)cc23)C[C@H]1C(=O)N[C@@H]1CCCc2ccccc21)C1CCCCC1"
value_measured = 3.79

[[record]]
molecule = "COc1cc2c(OC[C@@H]3CCC(=O)N3)ncc(C#CCOCCOCCOCCC(=O)N[C@H](C(=O)N3C[C@H](O)C[C@H]3C(=O)NCc3ccc(-c4scnc4C)cc3)C(C)(C)C)c2cc1C(N)=O"
value_measured = 3.18

[[record]]
molecule = "CN[C@@H](C)C(=O)N[C@H](C(=O)N1C[C@@H](NC(=O)CCCCCCCCCCC#Cc2cnc(OC[C@@H]3CCC(=O)N3)c3cc(OC)c(C(N)=O)cc23)C[C@H]1C(=O)N[C@@H]1CCCc2ccccc21)C1CCCCC1"
value_measured = 6.56

[[record]]
molecule = "CC[C@@H]1[C@H](F)C(=O)N[C@@H]1COc1ncc(C#CCN2CCC3(CC2)CCN(c2ncc(C(=O)N[C@H](C(=O)N4C[C@H](O)C[C@H]4C(=O)NCc4ccc(-c5scnc5C)cc4)C(C)(C)C)cn2)CC3)c2cc(C(N)=O)c(OC)cc12"
value_measured = 4.97


---

pIC50: −log10 of the molar value.
Below are molecules with their pIC50 as measured on Interleukin-1 receptor-associated kinase 1 (Homo sapiens).
Sequence (P51617 whole entry): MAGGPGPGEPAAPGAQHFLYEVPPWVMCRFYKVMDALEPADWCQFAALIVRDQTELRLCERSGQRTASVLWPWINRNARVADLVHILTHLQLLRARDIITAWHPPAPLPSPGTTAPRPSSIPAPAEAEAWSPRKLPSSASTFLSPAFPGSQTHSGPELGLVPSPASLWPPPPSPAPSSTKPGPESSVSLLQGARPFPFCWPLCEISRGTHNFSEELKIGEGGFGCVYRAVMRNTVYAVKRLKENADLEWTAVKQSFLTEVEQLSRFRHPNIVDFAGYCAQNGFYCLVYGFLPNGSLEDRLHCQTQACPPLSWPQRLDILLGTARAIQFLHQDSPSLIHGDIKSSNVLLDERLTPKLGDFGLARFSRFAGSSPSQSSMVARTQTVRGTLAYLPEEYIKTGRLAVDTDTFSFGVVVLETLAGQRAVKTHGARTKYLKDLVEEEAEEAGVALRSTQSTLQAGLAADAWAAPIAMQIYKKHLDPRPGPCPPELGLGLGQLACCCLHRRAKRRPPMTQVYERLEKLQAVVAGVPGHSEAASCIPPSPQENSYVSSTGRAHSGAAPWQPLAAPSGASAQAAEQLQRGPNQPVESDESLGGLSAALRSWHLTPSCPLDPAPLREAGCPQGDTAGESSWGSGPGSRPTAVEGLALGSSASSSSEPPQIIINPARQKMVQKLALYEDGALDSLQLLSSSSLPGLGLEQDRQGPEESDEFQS
measured_property: pIC50

[[record]]
molecule = "CN[C@@H](C)C(=O)N[C@H](C(=O)N1C[C@@H](NC(=O)CCCCCCCCCCC#Cc2cnc(OC[C@@H]3CCC(=O)N3)c3cc(OC)c(C(N)=O)cc23)C[C@H]1C(=O)N[C@@H]1CCCc2ccccc21)C1CCCCC1"
study_target = "Interleukin-1 receptor-associated kinase 1 (Homo sapiens)"
measured_property = "pIC50"
value_measured = 5.16

[[record]]
molecule = "CN[C@@H](C)C(=O)N[C@H](C(=O)N1C[C@@H](NC(=O)CCOCCOCCOCC#Cc2cnc(OC[C@@H]3CCC(=O)N3)c3cc(OC)c(C(N)=O)cc23)C[C@H]1C(=O)N[C@@H]1CCCc2ccccc21)C1CCCCC1"
study_target = "Interleukin-1 receptor-associated kinase 1 (Homo sapiens)"
measured_property = "pIC50"
value_measured = "< 5.00"

[[record]]
molecule = "COc1cc2c(OC[C@@H]3CCC(=O)N3)ncc(C#CCCCCCCCCCCOc3cccc4c3C(=O)N(C3CCC(=O)NC3=O)C4=O)c2cc1C(N)=O (some centres undefined)"
study_target = "Interleukin-1 receptor-associated kinase 1 (Homo sapiens)"
measured_property = "pIC50"
value_measured = "< 5.00"

[[record]]
molecule = "COc1cc2c(OC[C@@H]3CCC(=O)N3)ncc(C#CCOCCOCCOCCC(=O)N[C@H](C(=O)N3C[C@H](O)C[C@H]3C(=O)NCc3ccc(-c4scnc4C)cc3)C(C)(C)C)c2cc1C(N)=O"
study_target = "Interleukin-1 receptor-associated kinase 1 (Homo sapiens)"
measured_property = "pIC50"
value_measured = "< 5.00"


# credit: ChEMBL document CHEMBL4359855
